// provenance: patent US20210130436A1

# assayed_system: T1, human CTLA4 (full-length, expressed on CHO cells) (human, UniProt P16410 36-223)
# T1 construct: also called huCTLA4
# T1 sequence (P16410 36-223): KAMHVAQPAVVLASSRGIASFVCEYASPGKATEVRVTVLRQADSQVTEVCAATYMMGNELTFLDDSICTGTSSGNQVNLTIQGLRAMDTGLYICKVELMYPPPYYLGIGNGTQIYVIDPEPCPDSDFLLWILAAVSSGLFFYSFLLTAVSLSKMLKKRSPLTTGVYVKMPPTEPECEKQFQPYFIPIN
# experimental_protocol: flow cytometry, CHO cells expressing huCTLA4, PE anti-human Fc
observable: MFI at 33.3 nM (MFI)
Write the value in MFI as a bare number.

Study these solved cases before continuing.
{"binder": "variant CD80 IgV-Fc Q33L/E35D/M47V/T79A (Fc fusion, not shown: a dimerising Fc or GST) VIHVTKEVKEVATLSCGHNVSVEELAQTRIYWLKDKKMVLTMMSGDVNIWPEYKNRTIFDITNNLSIVILALRPSDEGAYECVVLKYEKDAFKREHLAEVTLSVKAD", "MFI at 33.3 nM [MFI]": 28900}
{"binder": "variant CD80 IgV-Fc A26E/E35D/M43T/M47L/L85Q/R94Q (Fc fusion, not shown: a dimerising Fc or GST) VIHVTKEVKEVATLSCGHNVSVEELEQTRIYWQKDKKMVLTMTSGDLNIWPEYKNRTIFDITNNLSIVILALRPSDEGTYECVVQKYEKDAFKQEHLAEVTLSVKAD", "MFI at 33.3 nM [MFI]": 278000}
{"binder": "variant CD80 IgV-Fc H18L/V22A/E35D/M47L/N48T/L85Q (Fc fusion, not shown: a dimerising Fc or GST) VIHVTKEVKEVATLSCGLNVSAEELAQTRIYWQKDKKMVLTMMSGDLTIWPEYKNRTIFDITNNLSIVILALRPSDEGTYECVVQKYEKDAFKREHLAEVTLSVKAD", "MFI at 33.3 nM [MFI]": 374000}

Consider now this further binder.
Task: Using the record for variant CD80 IgV-Fc E24D/Q33L/E35D/M47V/K54R/L85Q (Fc fusion, not shown: a dimerising Fc or GST) VIHVTKEVKEVATLSCGHNVSVEDLAQTRIYWLKDKKMVLTMMSGDVNIWPEYRNRTIFDITNNLSIVILALRPSDEGTYECVVQKYEKDAFKREHLAEVTLSVKAD , report its MFI at 33.3 nM.
Output: 311000
